subject.of.test: T1, RSV F glycoprotein (NUF4) (respiratory syncytial virus)
T1 chain 1: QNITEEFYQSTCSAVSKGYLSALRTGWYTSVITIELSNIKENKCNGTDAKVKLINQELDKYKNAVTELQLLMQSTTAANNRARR
T1 chain 2: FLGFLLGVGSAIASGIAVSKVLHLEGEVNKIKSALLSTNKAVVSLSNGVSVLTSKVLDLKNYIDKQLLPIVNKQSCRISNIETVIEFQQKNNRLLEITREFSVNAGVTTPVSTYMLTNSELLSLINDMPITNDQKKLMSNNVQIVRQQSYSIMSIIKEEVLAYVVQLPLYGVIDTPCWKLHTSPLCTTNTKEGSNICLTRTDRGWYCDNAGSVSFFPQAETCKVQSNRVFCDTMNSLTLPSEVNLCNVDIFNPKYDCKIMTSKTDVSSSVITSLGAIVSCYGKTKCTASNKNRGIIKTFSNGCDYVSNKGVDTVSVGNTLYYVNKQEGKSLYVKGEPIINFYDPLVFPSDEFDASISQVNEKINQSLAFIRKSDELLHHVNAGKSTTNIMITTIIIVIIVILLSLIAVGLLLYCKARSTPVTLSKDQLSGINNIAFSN
test.protocol: SPR (BIAcore), mAb vs NUF4 (1:1)
readout.name: pKd
One number for each entry, as −log10 of the molar value.

[
  {
    "binder": "A1e9 IgG (antibody, V domains shown, also called Ale9) VH: QVTLRESGPALVKPTQTLTLTCTFSGFSLSTAGMSVGWIRQPPGKALEWLADIWWDGKKHYNPSLKDRLTISKDTSKNQVVLKVTNMDPADTATYYCARDMIFNWYFDVWGQGTTVTVSS VL: DIQMTQSPSTLSASVGDRVTITCSLSSRVGYMHWYQQKPGKAPKLLIYDTFKLSSGVPSRFSGSGSGTEFTLTISSLQPDDFATYYCFQGSGYPFTFGGGTKVEIKR",
    "pKd": 9.16
  },
  {
    "binder": "A8c7 IgG (antibody, V domains shown) VH: QVTLRESGPALVKPTQTLTLTCTFSGFSLSTAGMSVGWIRQPPGKALEWLADIWWDDKKSYNPSLKDRLTISKDTSKNQVVLKVTNMDPADTATYYCARDMIFNWYFDVWGQGTTVTVSS VL: DIQMTQSPSTLSASVGDRVTITCSPSSRVGYMHWYQQKPGKAPKLLIYDTRYQSSGVPSRFSGSGSGTEFTLTISSLQPDDFATYYCFQGSGYPFTFGGGTKVEIKR",
    "pKd": 9.19
  },
  {
    "binder": "P12f4 IgG (antibody, V domains shown) VH: QVTLRESGPALVKPTQTLTLTCTFSGFSLSTPGMSVGWIRQPPGKALEWLADIWWDGKKHYNPSLKDRLTISKDTSKNQVVLKVTNMDPADTATYYCARDMIFNFYFDVWGQGTTVTVSS VL: DIQMTQSPSTLSASVGDRVTITCSLSSRVGYMHWYQQKPGKAPKLLIYDTRGLPSGVPSRFSGSGSGTEFTLTISSLQPDDFATYYCFQGSGYPFTFGGGTKVEIKR",
    "pKd": 9.62
  },
  {
    "binder": "A12a6 IgG (antibody, V domains shown) VH: QVTLRESGPALVKPTQTLTLTCTFSGFSLSTAGMSVGWIRQPPGKALEWLADIWWDGKKDYNPSLKDRLTISKDTSKNQVVLKVTNMDPADTATYYCARDMIFNFYFDVWGQGTTVTVSS VL: DIQMTQSPSTLSASVGDRVTITCSASSRVGYMHWYQQKPGKAPKLLIYDTFKLSSGVPSRFSGSGSGTEFTLTISSLQPDDFATYYCFQGSGYPFTFGGGTKVEIKR",
    "pKd": 9.14
  },
  {
    "binder": "A17d4(1) IgG (antibody, V domains shown) VH: QVTLRESGPALVKPTQTLTLTCTFSGFSLSTAGMSVGWIRQPPGKALEWLADIWWDGKKSYNPSLKDRLTISKDTSKNQVVLKVTNMDPADTATYYCARDMIFNFYFDVWGQGTTVTVSS VL: DIQMTQSPSTLSASVGDRVTITCLPSSRVGYMHWYQQKPGKAPKLLIYDTMYQSSGVPSRFSGSGSGTEFTLTISSLQPDDFATYYCFQGSGYPFTFGGGTKVEIKR",
    "pKd": 9.14
  }
]

Please turn your attention to the following entry.
// field: pKd; key: P12f2 IgG (antibody, V domains shown) VH: QVTLRESGPALVKPTQTLTLTCTFSGFSLSTPGMSVGWIRQPPGKALEWLADIWWDDKKHYNPSLKDRLTISKDTSKNQVVLKVTNMDPADTATYYCARDMIFNFYFDVWGQGTTVTVSS VL: DIQMTQSPSTLSASVGDRVTITCSLSSRVGYMHWYQQKPGKAPKLLIYDTFYLSSGVPSRFSGSGSGTEFTLTISSLQPDDFATYYCFQGSGYPFTFGGGTKVEIKR ; value = 9.48
